# experimental_details: in vitro
# Type: in vitro ADME
# test_context: human, serum
No end group written: not given here.
endpoint_name: remaining at 4 h (%)
Output spec: scalar in %, unitless text.

Measured remaining at 4 h, VHDIVNMLIRG [ELD607, VHDIVNMLIRG] : 100

----------
pIC50 by entry:
# tested_on: Orai1 (Homo sapiens)
# Sequence (Q96D31 whole entry): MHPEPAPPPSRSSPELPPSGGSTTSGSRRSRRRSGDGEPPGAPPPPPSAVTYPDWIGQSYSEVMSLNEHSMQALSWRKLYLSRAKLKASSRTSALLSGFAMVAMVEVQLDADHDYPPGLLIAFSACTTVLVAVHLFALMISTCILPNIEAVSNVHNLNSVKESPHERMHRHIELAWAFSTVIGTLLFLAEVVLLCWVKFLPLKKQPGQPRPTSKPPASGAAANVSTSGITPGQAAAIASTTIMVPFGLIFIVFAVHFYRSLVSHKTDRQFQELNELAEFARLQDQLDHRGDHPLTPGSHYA
# experimental_details: Dose response of Ca^2+ influx (SOCE), Ca^2+ add back approach, HEK293T cells
# Type: cell-based
# Parameters: Endogenous Orai1/store operated Ca^2+ influx have been extensively studied in HEK293T cells; endogenous in cells; host or cells: HEK293T
# test_context: Ca^2+ influx, HEK293T, 100 nM thapsigargin; read-out: IC50 (Molar)
# Procedure: HEK293T cells were cultured in 384 well plates. Cells were then exposed to vehicle or […] ELD607 for 1 h. 100 nM thapsigargin was then added followed by extracellular Ca^2+ to differentiate ER Ca^2+ release and SOCE. n=8-12 cultures per data point. ELD607 requires Orai1 expression to inhibit Ca^2+ signaling. […] Using this approach, curves were fitted to the data and the 50% inhibitory concentrations (IC50S) were calculated.
No end group written: not given here.
Scale note: pIC50 = -log10(concentration in M).

Measured pIC50, VHDIVNMLIRG [ELD607, VHDIVNMLIRG] : 7.09

Measured pIC50, DITLVHDIVNMLIHGL [ELD100, DITLVHDIVNMLIHGL] : 7.43
